Test system: adult male C57 mice
Test: Tail suspension test (TST)
Format: in vivo, mouse
Settings: Mus musculus; route sc, po; p < 0.05 compared to vehicle-treated mice; read-out: Active TST Dose
Recorded minimal effective dose values for a group of compounds are listed next.

- compound: "C[C@@H]1[C@@H](COc2ccc3c(c2)C(=O)NC3)[C@H](c2ccc(F)cc2)CCN1CC1CC1 [Compound B0720]"
  minimal effective dose: "≤ 10 mg/kg"
- compound: "COc1ccc([C@@H]2CCN(CCc3ccccc3)[C@H](C)[C@H]2COc2ccc3c(c2)C(=O)NC3)cc1 [Compound B0707]"
  minimal effective dose: "≤ 30 mg/kg"
- compound: "COc1ccc([C@@H]2CCN(CCC=C(F)F)[C@H](C)[C@H]2COc2ccc3c(c2)C(=O)NC3)cc1 [Compound B1145]"
  minimal effective dose: "≤ 10 mg/kg"
- compound: "COCCOc1ccc([C@@H]2CCN(CCc3ccccc3F)[C@H](C)[C@H]2COc2ccc3c(c2)C(=O)NC3)cc1 [Compound B1079]"
  minimal effective dose: "≤ 30 mg/kg"
- compound: "COc1ccc([C@@H]2CCN(CCn3cccc3)[C@H](C)[C@H]2COc2ccc3c(c2)C(=O)NC3)cc1 [Compound B0876]"
  minimal effective dose: "≤ 30 mg/kg"
- compound: "COCCOc1ccc([C@@H]2CCN(CCn3cccc3)[C@H](C)[C@H]2COc2ccc3c(c2)C(=O)NC3)cc1F [Compound B1205]"
  minimal effective dose: "≤ 30 mg/kg"
